Value source: patent US20210300940A1

Entries and their measured pIC50 follow.
- system: TLR8 (Homo sapiens)
- Sequence (Q9NR97 27-1041): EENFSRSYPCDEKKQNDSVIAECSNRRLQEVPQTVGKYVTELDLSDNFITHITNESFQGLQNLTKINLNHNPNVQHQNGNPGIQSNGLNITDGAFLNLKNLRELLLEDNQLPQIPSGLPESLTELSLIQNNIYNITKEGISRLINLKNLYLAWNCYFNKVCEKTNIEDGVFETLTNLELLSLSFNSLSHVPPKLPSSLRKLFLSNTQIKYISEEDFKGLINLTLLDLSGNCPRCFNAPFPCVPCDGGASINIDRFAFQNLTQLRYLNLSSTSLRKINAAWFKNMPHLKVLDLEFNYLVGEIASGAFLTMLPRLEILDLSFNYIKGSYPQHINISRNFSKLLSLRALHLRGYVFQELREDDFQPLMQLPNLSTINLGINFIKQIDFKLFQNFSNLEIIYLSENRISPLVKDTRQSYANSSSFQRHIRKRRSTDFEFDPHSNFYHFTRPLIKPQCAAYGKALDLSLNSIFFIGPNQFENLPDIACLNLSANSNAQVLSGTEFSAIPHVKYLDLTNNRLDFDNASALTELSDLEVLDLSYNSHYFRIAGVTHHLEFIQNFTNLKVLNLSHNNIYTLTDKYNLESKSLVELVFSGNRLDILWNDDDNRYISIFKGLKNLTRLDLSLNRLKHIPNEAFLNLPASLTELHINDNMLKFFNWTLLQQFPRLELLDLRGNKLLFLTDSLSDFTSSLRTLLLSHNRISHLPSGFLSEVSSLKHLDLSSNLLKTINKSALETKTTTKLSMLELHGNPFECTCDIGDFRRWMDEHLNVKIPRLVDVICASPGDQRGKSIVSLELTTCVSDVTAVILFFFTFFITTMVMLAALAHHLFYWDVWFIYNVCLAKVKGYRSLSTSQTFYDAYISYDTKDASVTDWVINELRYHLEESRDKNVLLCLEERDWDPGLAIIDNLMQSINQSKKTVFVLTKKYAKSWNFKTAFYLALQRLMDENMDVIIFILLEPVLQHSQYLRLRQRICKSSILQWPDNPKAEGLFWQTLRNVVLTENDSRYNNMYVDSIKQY
- assay: HEK/293 TLR8 Cell Assay
- condition_description: HEK cells, R848 agonist 30 uM final concentration, Steady-Glo readout; read-out: TLR8 potency
pIC50: −log10 of the molar value. Counter-ions that a name gives are not always drawn.
measure: pIC50

[
  {
    "molecule": "C[C@H]1C[C@@H](NC(=O)[C@@H](O)C(C)(C)O)CN(c2ccc(C#N)c3nccnc23)C1",
    "system": "TLR8 (Homo sapiens)",
    "result": "> 7.12"
  },
  {
    "molecule": "Cc1ncc(N2C[C@@H](C)C[C@@H](NC(=O)CC3C4CC3CN(C)C4)C2)c2cccnc12 (stereo partly shown)",
    "system": "TLR8 (Homo sapiens)",
    "result": "> 7.12"
  },
  {
    "molecule": "CC(=O)NCCN[C@@H]1C[C@H](C)CN(c2ccc(C(F)(F)F)c3nccnc23)C1",
    "system": "TLR8 (Homo sapiens)",
    "result": "> 7.12"
  },
  {
    "molecule": "C[C@H]1C[C@@H](NCC2(O)CCOCC2)CN(c2cnc(C(F)(F)F)c3ncccc23)C1",
    "system": "TLR8 (Homo sapiens)",
    "result": "< 6.82"
  },
  {
    "molecule": "N[C@H](CO)C(=O)N[C@@H]1C[C@H](C(F)(F)F)CN(c2ccc(C(F)(F)F)c3ncccc23)C1",
    "system": "TLR8 (Homo sapiens)",
    "result": "< 6.82"
  },
  {
    "molecule": "C[C@@H](O)CNC(=O)[C@@H]1CN(c2ccc(C#N)c3nccnc23)C[C@H](C(F)(F)F)O1 (single isomer, unassigned)",
    "system": "TLR8 (Homo sapiens)",
    "result": "< 6.82"
  },
  {
    "molecule": "C[C@@H]1CN(c2cnc(C#N)c3ncccc23)C[C@H](CNC(=O)[C@]2(F)CCNC2)O1 (single isomer, unassigned)",
    "system": "TLR8 (Homo sapiens)",
    "result": "> 7.12"
  },
  {
    "molecule": "C[C@H]1C[C@@H](NCCNS(C)(=O)=O)CN(c2ccc(C(F)(F)F)c3ncccc23)C1",
    "system": "TLR8 (Homo sapiens)",
    "result": "> 7.12"
  },
  {
    "molecule": "N#Cc1ncc(N2C[C@@H](C(F)(F)F)O[C@@H](C(=O)NCC3(F)CCNCC3)C2)c2cccnc12 (single isomer, unassigned)",
    "system": "TLR8 (Homo sapiens)",
    "result": "6.82 to 7.12"
  },
  {
    "molecule": "C[C@@H](O)CNC(=O)[C@H]1CN(c2ccc(C#N)c3nccnc23)C[C@@H](C(F)(F)F)O1 (single isomer, unassigned)",
    "system": "TLR8 (Homo sapiens)",
    "result": "< 6.82"
  },
  {
    "molecule": "C[C@H]1C[C@@H](NC(=O)[C@@H]2CCCN2)CN(c2ccc(C#N)c3nccnc23)C1",
    "system": "TLR8 (Homo sapiens)",
    "result": "> 7.12"
  },
  {
    "molecule": "C[C@@H]1CN(c2cnc(C#N)c3ncccc23)C[C@H](CN2CCNCC2)O1",
    "system": "TLR8 (Homo sapiens)",
    "result": "> 7.12"
  },
  {
    "molecule": "C[C@@H]1CN(c2cnc(C#N)c3ncccc23)C[C@H](CNCC2(O)COC2)O1",
    "system": "TLR8 (Homo sapiens)",
    "result": "< 6.82"
  },
  {
    "molecule": "CCS(=O)(=O)NCCN[C@@H]1C[C@H](C)CN(c2ccc(C(F)(F)F)c3nccnc23)C1",
    "system": "TLR8 (Homo sapiens)",
    "result": "> 7.12"
  },
  {
    "molecule": "N#Cc1ccc(N2C[C@@H](C(F)(F)F)O[C@@H](C(=O)N[C@H]3CNC[C@H]3F)C2)c2nccnc12 (single isomer, unassigned)",
    "system": "TLR8 (Homo sapiens)",
    "result": "> 7.12"
  },
  {
    "molecule": "C[C@H]1C[C@@H](NC(=O)CC2(O)CCN(C)CC2)CN(c2ccc(C#N)c3nccnc23)C1 [Example 72, hydrochloride]",
    "system": "TLR8 (Homo sapiens)",
    "result": "> 7.12"
  },
  {
    "molecule": "C[C@H]1C[C@@H](NC(=O)CCn2ccnc2)CN(c2ccc(C#N)c3nccnc23)C1",
    "system": "TLR8 (Homo sapiens)",
    "result": "> 7.12"
  },
  {
    "molecule": "CN(C)CCNC(=O)N[C@@H]1C[C@H](C(F)(F)F)CN(c2ccc(C#N)c3ncccc23)C1",
    "system": "TLR8 (Homo sapiens)",
    "result": "6.82 to 7.12"
  },
  {
    "molecule": "Cc1ccc(N2C[C@@H](C)C[C@@H](NC(=O)CC3CCN(C(C)C)CC3)C2)c2cccnc12",
    "system": "TLR8 (Homo sapiens)",
    "result": "> 7.12"
  },
  {
    "molecule": "CC(=O)NCCNC(=O)[C@H]1CN(c2ccc(C#N)c3nccnc23)C[C@@H](C)O1",
    "system": "TLR8 (Homo sapiens)",
    "result": "< 6.82"
  },
  {
    "molecule": "CC(C)(O)CNC(=O)[C@@H]1CN(c2ccc(C#N)c3nccnc23)C[C@H](C(F)(F)F)O1 (single isomer, unassigned)",
    "system": "TLR8 (Homo sapiens)",
    "result": "< 6.82"
  },
  {
    "molecule": "C[C@H]1C[C@@H](NC(=O)C[C@@H]2CCNC[C@@H]2F)CN(c2ccc(C#N)c3ncncc23)C1",
    "system": "TLR8 (Homo sapiens)",
    "result": "< 6.82"
  },
  {
    "molecule": "CN1CCC(O)(CC(=O)N[C@@H]2C[C@H](C(F)(F)F)CN(c3ccc(C#N)c4nccnc34)C2)CC1",
    "system": "TLR8 (Homo sapiens)",
    "result": "> 7.12"
  },
  {
    "molecule": "C[C@H]1C[C@@H](NCCNS(C)(=O)=O)CN(c2ccc(C(F)(F)F)c3nccnc23)C1",
    "system": "TLR8 (Homo sapiens)",
    "result": "> 7.12"
  },
  {
    "molecule": "C[C@H]1C[C@@H](NC(=O)[C@H](O)C(C)(C)O)CN(c2ccc(C#N)c3nccnc23)C1",
    "system": "TLR8 (Homo sapiens)",
    "result": "< 6.82"
  },
  {
    "molecule": "C[C@@H]1C[C@H](NC(=O)C[C@@H]2[C@@H]3C[C@H]2CN(C)C3)CN(c2ccc(C(F)(F)F)c3ncccc23)C1",
    "system": "TLR8 (Homo sapiens)",
    "result": "> 7.12"
  },
  {
    "molecule": "C[C@@H]1CN(c2cnc(C#N)c3ncccc23)C[C@H](CN2CCNC(=O)C2)O1",
    "system": "TLR8 (Homo sapiens)",
    "result": "< 6.82"
  },
  {
    "molecule": "C[C@H]1C[C@@H](NS(=O)(=O)NCCC2CCN(C)CC2)CN(c2ccc(C(F)(F)F)c3ncccc23)C1",
    "system": "TLR8 (Homo sapiens)",
    "result": "> 7.12"
  }
]
